All values here come from patent US20250230147A1.

Target: c-Cbl (Homo sapiens (Human))
Sequence (P22681 47-435): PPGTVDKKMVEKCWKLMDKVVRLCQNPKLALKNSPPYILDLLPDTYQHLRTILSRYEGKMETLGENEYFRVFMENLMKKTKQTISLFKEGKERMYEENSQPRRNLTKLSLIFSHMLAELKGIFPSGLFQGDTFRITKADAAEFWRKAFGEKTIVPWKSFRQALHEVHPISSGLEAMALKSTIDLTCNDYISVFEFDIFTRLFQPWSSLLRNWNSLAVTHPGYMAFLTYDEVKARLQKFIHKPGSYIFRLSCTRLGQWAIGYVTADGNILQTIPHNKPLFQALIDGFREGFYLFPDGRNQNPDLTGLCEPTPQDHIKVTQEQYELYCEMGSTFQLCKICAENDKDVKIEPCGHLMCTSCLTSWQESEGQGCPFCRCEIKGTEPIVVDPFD
Test: C-Cbl LCK Ub TR-FRET assay (c-cbl Lck HTRF)
Format: biochemical
Procedure: 6 μL of detection mixture was added to all wells and briefly centrifuged before incubating for 20 min at room temperature. […] IC50 was generated using no LCK as the low control and DMSO as the high control.
Endpoint label: IC50 (nM)
Number only, in nM; omit the unit.

Examples from the recorded data:
State its IC50 for this compound: C[C@@H](c1cc2c(c(C(F)(F)F)c1)CN(c1cccc(C3([C@H](F)c4nncn4C)COC3)c1)C2=O)N1CC(C)(F)C1 650

Note down IC50 recorded for COC(C)(C)CNCc1cc2c(c(C(F)(F)F)c1)CN(c1cccc(C3(Cc4nncn4C)CC(F)(F)C3)c1)C2=O 25

Further cases:
Specify reported IC50 for the compound shown: CC(C)[C@H]1CN(C)CCN1Cc1cc2c(c(C(F)(F)F)c1)CN(c1cccc(C3([C@H](F)c4nncn4C)COC3)c1)C2=O 25

* * *

Target: Cbl-b (Homo sapiens (Human), UniProt Q13191)
Sequence (Q13191 40-426): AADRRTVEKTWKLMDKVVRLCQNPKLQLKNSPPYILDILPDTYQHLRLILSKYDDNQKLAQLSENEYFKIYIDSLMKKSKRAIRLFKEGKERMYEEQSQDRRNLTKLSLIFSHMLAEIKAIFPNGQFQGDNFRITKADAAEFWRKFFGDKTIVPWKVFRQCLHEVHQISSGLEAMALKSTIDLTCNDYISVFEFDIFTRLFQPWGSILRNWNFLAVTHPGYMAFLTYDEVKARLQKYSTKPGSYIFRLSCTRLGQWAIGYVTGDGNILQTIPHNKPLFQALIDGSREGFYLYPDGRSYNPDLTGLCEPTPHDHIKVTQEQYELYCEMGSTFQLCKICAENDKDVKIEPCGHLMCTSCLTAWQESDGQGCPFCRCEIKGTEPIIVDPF
Assay: Cbl-b LCK Ub TR-FRET assay (Cbl-b Lck HTRF)
Assay type: biochemical
Where a name gives a salt, the structure may show the parent alone.
Endpoint label: pIC50
When answering, recall that pIC50 equals minus log10 of the concentration in mol/L, and write that number alone.

Observe how each entry below is paired with its result.
For the compound CC(=O)N1CCN(Cc2cc3c(c(C(F)(F)F)c2)CN(c2cccc(C4([C@H](F)c5nncn5C)COC4)c2)C3=O)[C@@H](C(C)C)C1 , give its measured pIC50 value. 6.57

Recall and state the measured pIC50 for CC(C)[C@H]1CN(C)CCN1Cc1cc2c(c(C(F)(F)F)c1)CN(c1cc(C3(Cc4nncn4C)CCC3)cc(C#N)n1)C2=O . 7.96

Report pIC50, nothing else, for this compound: CC(C)[C@H]1CN(C)CCN1Cc1cc(Cl)c2c(c1)C(=O)N(c1cccc(C3(Cc4nncn4C)CC(F)(F)C3)c1)C2 7.80

Using known records, supply pIC50 for CC(C)[C@H]1CN(C)CCN1Cc1cc2c(c(C(F)(F)F)c1)CN(c1cccc(C3([C@@H](F)c4n[nH]cc4C(F)(F)F)COC3)c1)C2=O 5.00

Output measured pIC50 for this item: Cn1cnnc1CC1(c2cccc(N3Cc4c(cc(C5CCCN5)cc4C(F)(F)F)C3=O)c2)COC1.O=CO (racemic) [Compound 11, formate] 6.38

Identify the reported pIC50 for the following entry. Cn1cnnc1[C@@H](F)C1(c2cccc(N3Cc4c(cc(CN)cc4C(F)(F)F)C3=O)c2)CCC1 7.24

Others:
// Input: Cn1cnnc1CC1(c2ccnc(N3Cc4c(cc(CNC5(C)CCC5)cc4C(F)(F)F)C3=O)c2)CCC1 . Output its pIC50 only. 7.82

Report pIC50 for Cn1cnnc1[C@H](F)C1(c2cccc(N3Cc4c(Br)cccc4C3=O)c2)COC1 6.70

For the compound CC(C)[C@H]1CN(C)CCN1C(C)c1cc2c(c(C(F)(F)F)c1)CN(c1cccc(C3([C@@H](F)c4nncn4C)CC(F)(F)C3)c1)C2=O (some centres unmarked) , give its measured pIC50 value. 7.34

Indicate its recorded pIC50; the compound in question is Cn1cnnc1[C@@H](F)C1(c2cccc(N3Cc4c(cc(CN5CC6(CCC6)C5)cc4C(F)(F)F)C3=O)c2)COC1 6.77

Consider the compound CC(C)[C@H]1CN(CC(F)(F)F)CCN1Cc1cc2c(c(C(F)(F)F)c1)CN(c1cccc(C3([C@H](F)c4nncn4C)COC3)c1)C2=O and give its recorded pIC50. 6.66

State, in one line, measured pIC50 of COCCOCCNc1cc(C2(Cc3nncn3C)CCC2)cc(N2Cc3c(cc(CNC4(C)CCC4)cc3C(F)(F)F)C2=O)n1 7.48

Please give the documented pIC50 of CO[C@H]1CCN(Cc2cc3c(c(C(F)(F)F)c2)CN(c2cccc(C4([C@@H](F)c5nncn5C)COC4)c2)C3=O)C1 7.23

Fill in pIC50 for record Cn1cnnc1CC1(c2cc(CCC(C)(C)C)nc(N3Cc4c(cc(CNC5(C)CCC5)cc4C(F)(F)F)C3=O)c2)CCC1 7.57

# return recorded pIC50 for entry CC(C)[C@@H]1CN(Cc2cc3c(c(C(F)(F)F)c2)CN(c2cccc(C4(Cc5nncn5C)CC(F)(F)C4)c2)C3=O)CCN1C 7.39

Consider the compound CNCc1cc2c(c(C(F)(F)F)c1)CN(c1cccc(C3([C@@H](F)c4nncn4C)COC3)c1)C2=O and give its recorded pIC50. 7.12

Name the recorded pIC50 of the compound listed here: Cn1cnnc1CC1(c2cccc(N3Cc4c(cc(CNC56CC(C)(C5)C6)cc4C(F)(F)F)C3=O)c2)CC(F)(F)C1 [Compound 354, formate] 7.89

Name the recorded pIC50 of the item CC(C)[C@H]1CN(C)CCN1Cc1cc2c(c(C(F)(F)F)c1)CN(c1cccc(C3([C@H](F)c4n[nH]cc4C(F)(F)F)COC3)c1)C2=O in your answer. 4.70

Could you please provide reported pIC50 for CC(C)[C@H]1CN(C)CCN1Cc1cc2c(c(C(F)(F)F)c1)CN(c1cccc(C3([C@@H](F)c4nncn4C)COC3)c1)C2=O ? Thanks! 7.96
